molecular target: His6-PDK1 (aa 52-556) (Homo sapiens, UniProt O15530); construct: 15 μL His6-PDK1 (aa 52-556) 3.33 ng/well); host or cells: baculovirus-infected insect cells; test: PDK1 kinase assay III (with Tween 20); type: biochemical; details: compound at 10 μM; PDK1 kinase assay III (values without asterisk); read-out: % CTL (residual activity of the enzyme relative to DMSO control)
Sequence (O15530 52-556): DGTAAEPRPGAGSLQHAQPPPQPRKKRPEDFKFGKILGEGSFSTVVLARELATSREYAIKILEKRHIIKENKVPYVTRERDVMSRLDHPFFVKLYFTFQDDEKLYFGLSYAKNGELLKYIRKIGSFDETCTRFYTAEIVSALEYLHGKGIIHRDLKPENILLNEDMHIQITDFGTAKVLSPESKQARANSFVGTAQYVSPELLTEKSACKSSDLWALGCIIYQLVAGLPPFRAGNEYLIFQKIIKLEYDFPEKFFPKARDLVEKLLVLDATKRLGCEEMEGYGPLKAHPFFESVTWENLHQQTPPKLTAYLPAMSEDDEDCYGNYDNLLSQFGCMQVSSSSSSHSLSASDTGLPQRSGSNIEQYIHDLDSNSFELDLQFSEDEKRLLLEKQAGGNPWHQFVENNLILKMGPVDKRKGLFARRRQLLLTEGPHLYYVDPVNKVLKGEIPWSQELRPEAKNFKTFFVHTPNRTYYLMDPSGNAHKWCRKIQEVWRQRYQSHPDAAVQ
value_kind: remaining activity at 10 µM (%)
# unit: % | format: bare number

Please review the entries below; each comes with its answer.
{"compound": "CN1CCC(Nc2ccc(Nc3ncc4cc(/C=C/CNC(=O)c5cncn(Cc6ccc(F)c(F)c6)c5=O)ccc4n3)cc2F)CC1 [IV-46]", "value_kind": "remaining activity at 10 µM", "reported_measurement": 11.9}
{"compound": "Cc1c(C(=O)NC/C=C/c2ccc3ncncc3c2)c(=O)n(Cc2ccc(F)c(F)c2)n1C [IV-57]", "value_kind": "remaining activity at 10 µM", "reported_measurement": 35.5}
{"compound": "Cc1c(C#CCNC(=O)c2cncn(Cc3ccc(F)c(F)c3)c2=O)c(=O)n(C(C)C)c2nc(Nc3ccc(N4CCOCC4)cc3)ncc12 [III-29]", "value_kind": "remaining activity at 10 µM", "reported_measurement": 16.4}

Value wanted: remaining activity at 10 µM (His6-PDK1 (aa 52-556) (Homo sapiens, UniProt O15530)) of entry "NCCOc1cc(C#CCNC(=O)c2cncn(Cc3ccc(F)c(F)c3)c2=O)cc2cnc(Nc3ccccc3)nc12"
13.7

Value wanted: remaining activity at 10 µM (His6-PDK1 (aa 52-556) (Homo sapiens, UniProt O15530)) of entry O=C1Nc2cc(/C=C/CNC(=O)c3cc(Cl)nn(Cc4ccc(F)c(F)c4)c3=O)ccc2/C1=C/c1cnc[nH]1 [I-33]
12

Value wanted: remaining activity at 10 µM (His6-PDK1 (aa 52-556) (Homo sapiens, UniProt O15530)) of entry "COCCN(C)C(=O)c1ccc(Nc2ncc3cc(C#CCNC(=O)c4cncn(Cc5ccc(F)c(F)c5)c4=O)ccc3n2)cc1"
12.2

Value wanted: remaining activity at 10 µM (His6-PDK1 (aa 52-556) (Homo sapiens, UniProt O15530)) of entry "Cc1ncc(C(=O)NC/C=C/c2ccc3nc(Nc4ccc(CN(C)C)cc4)ncc3c2)c(=O)n1Cc1ccc(F)c(F)c1"
13.8
